Test system: FLOD-G derived from Gibberella fujikuroi (IFO No. 6605)
Assay: Effect of metal ion on the activity of FLOD-G
Format: biochemical
Settings: metal 1 mM; 0.1 M Tris-HCl pH 8.0; pre-incubated 5 minutes at 30° C.; None = 100
Label fulfilled when Specific activity (%) < 90%; otherwise not fulfilled.

[
  {
    "COMPOUND": "[Cl-].[K+]",
    "ASSIGNED CATEGORY": "not fulfilled"
  },
  {
    "COMPOUND": "O=S(=O)([O-])[O-].[Zn+2]",
    "ASSIGNED CATEGORY": "fulfilled"
  },
  {
    "COMPOUND": "[Cl][Fe]([Cl])[Cl]",
    "ASSIGNED CATEGORY": "fulfilled"
  },
  {
    "COMPOUND": "[Ca+2].[Cl-].[Cl-]",
    "ASSIGNED CATEGORY": "not fulfilled"
  },
  {
    "COMPOUND": "[Cl-].[Li+]",
    "ASSIGNED CATEGORY": "not fulfilled"
  },
  {
    "COMPOUND": "[Cl][Mn][Cl]",
    "ASSIGNED CATEGORY": "not fulfilled"
  },
  {
    "COMPOUND": "[Cl][Cu][Cl]",
    "ASSIGNED CATEGORY": "fulfilled"
  },
  {
    "COMPOUND": "[Cl-].[Rb+]",
    "ASSIGNED CATEGORY": "not fulfilled"
  },
  {
    "COMPOUND": "[Cl][Hg][Cl]",
    "ASSIGNED CATEGORY": "fulfilled"
  },
  {
    "COMPOUND": "O=S(=O)([O-])[O-].[Fe+2]",
    "ASSIGNED CATEGORY": "fulfilled"
  },
  {
    "COMPOUND": "O=S(=O)([O-])[O-].[Co+2]",
    "ASSIGNED CATEGORY": "fulfilled"
  },
  {
    "COMPOUND": "[Cl-].[Cl-].[Mg+2]",
    "ASSIGNED CATEGORY": "not fulfilled"
  },
  {
    "COMPOUND": "[Cl-].[Cs+]",
    "ASSIGNED CATEGORY": "not fulfilled"
  },
  {
    "COMPOUND": "[Ba+2].[Cl-].[Cl-]",
    "ASSIGNED CATEGORY": "not fulfilled"
  },
  {
    "COMPOUND": "O=[N+]([O-])[O-].[Ag+]",
    "ASSIGNED CATEGORY": "fulfilled"
  }
]

====

System: FLOD-S derived from S-1F4 strain
Experiment: Effect of metal ion on the activity of FLOD-S
Type: biochemical, Fusarium oxysporum S-1F4
Conditions: metal 1 mM; 0.1 M Tris-HCl pH 8.0; 5 minutes at 30° C.; None = 100

[
  {
    "MOLECULE": "[Ba+2].[Cl-].[Cl-] [BaCl2]",
    "Specific activity (%)": 60
  },
  {
    "MOLECULE": "[Ca+2].[Cl-].[Cl-] [CaCl2]",
    "Specific activity (%)": 77
  },
  {
    "MOLECULE": "[Cl-].[Cl-].[Mg+2] [MgCl2]",
    "Specific activity (%)": 75
  },
  {
    "MOLECULE": "[Cl][Mn][Cl] [MnCl2]",
    "Specific activity (%)": 154
  },
  {
    "MOLECULE": "O=S(=O)([O-])[O-].[Co+2] [CoSO4]",
    "Specific activity (%)": 42
  },
  {
    "MOLECULE": "[Cl][Cu][Cl] [CuCl2]",
    "Specific activity (%)": 0
  },
  {
    "MOLECULE": "O=S(=O)([O-])[O-].[Zn+2] [ZnSO4]",
    "Specific activity (%)": 0
  },
  {
    "MOLECULE": "[Cl][Fe]([Cl])[Cl] [FeCl3]",
    "Specific activity (%)": 67
  },
  {
    "MOLECULE": "O=[N+]([O-])[O-].[Ag+] [AgNO3]",
    "Specific activity (%)": 0
  },
  {
    "MOLECULE": "[Cl-].[Li+] [LiCl]",
    "Specific activity (%)": 100
  },
  {
    "MOLECULE": "[Cl][Hg][Cl] [HgCl2]",
    "Specific activity (%)": 0
  },
  {
    "MOLECULE": "[Cl-].[K+] [KCl]",
    "Specific activity (%)": 104
  },
  {
    "MOLECULE": "[Cl-].[Cs+] [CsCl2]",
    "Specific activity (%)": 102
  },
  {
    "MOLECULE": "[Cl-].[Rb+] [RbCl]",
    "Specific activity (%)": 103
  },
  {
    "MOLECULE": "O=S(=O)([O-])[O-].[Fe+2] [FeSO4]",
    "Specific activity (%)": 97
  }
]
